The values you see were collected from ChEMBL document CHEMBL1201862.

Observed GI50, system HCT-15.
# number only, unit µM dropped from output

Before answering, review these 3 worked examples.
- compound: "CC1SC2=NC3=C(c4ccccc4C3=O)C(c3ccc(Br)cc3)N2C1=O (centres undefined)"
  experimental.result: 52.2
- compound: "CCCCCCCCC/C=C1\\CC(CO)(COC(=O)C2CCCCC2)OC1=O (centres undefined)"
  experimental.result: 23.2
- compound: "COC1=CC(=O)C2=C(C1=O)[C@H]1CC[C@]3(C)[C@@H](OC(C)=O)CC[C@H]3[C@@H]1CC2"
  experimental.result: 49.5

In: What does the data say about its GI50? Entry: COC(=O)C(Cc1ccccc1)C(=O)NC(CNC(=O)OCc1ccccc1)C(=O)OCc1ccccc1 (centres undefined)
Out: 45.7
